// data source = ChEMBL document CHEMBL4428125

Biological target: UniProt P25099
Sequence (P25099 whole entry): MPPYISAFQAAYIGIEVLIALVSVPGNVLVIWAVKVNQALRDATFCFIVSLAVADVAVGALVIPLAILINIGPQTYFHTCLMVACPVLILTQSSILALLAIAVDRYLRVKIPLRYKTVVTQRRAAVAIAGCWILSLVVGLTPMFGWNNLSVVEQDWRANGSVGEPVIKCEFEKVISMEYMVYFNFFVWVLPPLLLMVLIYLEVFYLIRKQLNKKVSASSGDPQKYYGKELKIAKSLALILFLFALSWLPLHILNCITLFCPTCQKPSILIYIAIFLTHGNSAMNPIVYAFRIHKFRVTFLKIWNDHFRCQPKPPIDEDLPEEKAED
Assay: Displacement of [3H]CCPA from A1 receptor in rat brain cortex membranes by liquid scintillation counting method
Format: cell membranes
pKi: −log10 of the molar value.
pKi overview

[[record]]
mol = "Cn1c(=O)c2c(nc3n2CCN(CCc2ccc(Cl)cc2)C3)n(C)c1=O"
result = "< 5.82"

[[record]]
mol = "Cn1c(=O)c2c(nc3n2CCN(CCc2ccc(F)c(F)c2)C3)n(C)c1=O"
result = "< 5.82"

[[record]]
mol = "Cn1c(=O)c2c(nc3n2CCN(Cc2nocc2-c2ccccc2)C3)n(C)c1=O"
result = "< 5.82"


Proceed to the following item.
Which measured pKi value corresponds to Cn1c(=O)c2c(nc3n2CCN([C@@H]2CCCc4ccccc42)C3)n(C)c1=O ?
7.00
